Measured values drawn from ChEMBL document CHEMBL1149445 for this set.

// IC50 lookup, one value per entry
- Tested on: HeLa
- ASSAY OVERVIEW: Antitumor activity against human cervical carcinoma HeLa cell line
- Format: functional, cell-based
- CONDITION SET: Homo sapiens, HeLa; read-out: IC50

Examples with answers:
CC1(C)CCC[C@]2(C)c3cc(O)c(OCc4ccccc4F)cc3CC[C@H]12
13.4 µg/mL
CC1(C)CCC[C@]2(C)c3cc(OCc4ccc(Cl)cc4)c(O)cc3CC[C@@H]12
> 50 µg/mL

Kindly review the next compound as well.
Kindly indicate its recorded IC50. Item: CC1(C)CCC[C@]2(C)c3cc(O)c(OCc4ccc(Cl)cc4)cc3CC[C@H]12
> 50 µg/mL
